- Tested on: Canis familiaris
- PROTOCOL DETAILS: Half life was determined after oral administration at 1 mg/kg in dogs
- Type: ADME, organism-based, Canis lupus familiaris
- Parameters: dose 1 mg/kg, route oral
- RUN PARAMETERS: dog, in vivo
READOUT LABEL: T1/2 (h)
Respond with the bare value in h.

Sample Cc1nc(N)ccc1CNC(=O)Cn1c(C)ccc(NS(=O)(=O)Cc2ccccc2)c1=O [L-374087] ; T1/2 observed: 2.57

* * *

- System: Rattus norvegicus
- PROTOCOL DETAILS: Final plasma concentration when 3 ug/kg/min compound administered intravenously in rat
- Type: ADME, organism-based
- RUN PARAMETERS: in vivo, iv, 0.003 mg/kg
READOUT LABEL: concentration (nM)
Respond with the bare value in nM.

Sample Cc1nc(N)ccc1CNC(=O)Cn1c(C)cc2c(c1=O)NC(=O)[C@H](CC1CC1)C2 ; concentration observed: 185
